Hey, just so you know, these numbers are from patent US4020111A.

Measured Relative Sleeping Time of individual entries
# System: mice
# ASSAY_NAME: extension of Secobarbital sleeping time by synergists
# Assay type: in vivo, Swiss albino white male mice
# CONDITION_PARAMETERS: Secobarbital 37 mg/K, synergist 74 mg/K; treated/control
// no unit string in output, number only

Below are worked cases with known answers.
> print(dat)
                                compound  numeric.readout
1            C#CCOCc1c(Cl)cccc1Cl [II-H]              1.4
2           C#CCON=Cc1cccc2ccccc12 [I-I]              1.1
3  C#CCOCc1c(Cl)cccc1[N+](=O)[O-] [II-K]              1.5

Form field: reported Relative Sleeping Time of C#CCOCc1cccc([N+](=O)[O-])c1Cl [II-L] 1.0
